Listed below: AC50 values for each entry.
- target under test: Scavenger receptor class B member 1 (Mus musculus)
- experiment: SR-BI-mediated DiI-HDL uptake inhibitors, dose response, ldlA[mSR-BI] CHO cells, powder samples, set 4 (AID 588548)
- setup conditions: DiI-HDL uptake fluorescence, 3 h

compound | readout value
O=C(CN(C(=O)Cn1nnc(-c2ccc(Cl)c(Cl)c2)n1)C1CCCCC1)NC1CCCC1 | 302 nM
O=C(CN(C(=O)Cn1nnc(-c2ccc3c(c2)OCO3)n1)C1CCCCC1)NC1CCCC1 | < 15 nM
CCC(=O)N1CCc2cc(-c3csc(NC(=O)c4cccc(OC(F)(F)F)c4)n3)ccc21 | 18.5 nM

For the compound `COC(=O)N1CCc2cc(-c3csc(NC(=O)c4cc(OC)cc(OC)c4)n3)ccc21` , give its reported AC50.
72 nM

For the compound `COc1cc(OC)cc(C(=O)Nc2nc(-c3ccc4c(c3)CCN4C(=O)CN(C)C)cs2)c1` , give its reported AC50.
< 15 nM

For the compound `COc1cc(OC)cc(C(=O)Nc2nc(-c3ccc4c(c3)CCN4C(C)=O)cs2)c1` , give its reported AC50.
24.9 nM

For the compound CC(C(=O)NC1CCCC1)N(C(=O)Cn1nnc(-c2ccc3c(c2)OCO3)n1)C1CCCCC1 (configuration not stated) , give its reported AC50.
< 15 nM

Where these numbers come from: PubChem BioAssay AID588548
